test: Tissue distribution in rats; format: in vivo, male Sprague-Dawley (SD) rats; settings: Sprague-Dawley, rat, kidney/plasma; IV infusion 2.0 mg/kg, 2 hours post-dose, male SD rats; read-out: tissue/plasma ratio kidney/plasma
Readout: Kp at 2 h
// response body must contain only the number

input: Give Kp at 2 h for COc1nc2ccc(Oc3c(Cl)cc(-n4nc(C#N)c(=O)[nH]c4=O)cc3Cl)cc2n1C1(C)CC1 [Example 12]
output: 1.01

###

molecular target: THR-β/RXR-α (Homo sapiens (Human)); experiment: THR/RXR heterodimer assay (THR-β/RXR-α); format: biochemical; settings: RXR heterodimer assay; normalized to T3 activity
Sequence (P10828 202-461): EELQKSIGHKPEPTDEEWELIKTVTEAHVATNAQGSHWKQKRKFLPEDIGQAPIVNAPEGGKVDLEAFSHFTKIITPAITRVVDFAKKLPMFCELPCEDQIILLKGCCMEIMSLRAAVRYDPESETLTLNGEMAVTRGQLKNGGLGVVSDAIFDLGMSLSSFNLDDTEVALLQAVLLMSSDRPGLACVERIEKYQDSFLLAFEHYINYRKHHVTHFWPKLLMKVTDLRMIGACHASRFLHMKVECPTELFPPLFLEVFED
Sequence (P19793 225-462 partner): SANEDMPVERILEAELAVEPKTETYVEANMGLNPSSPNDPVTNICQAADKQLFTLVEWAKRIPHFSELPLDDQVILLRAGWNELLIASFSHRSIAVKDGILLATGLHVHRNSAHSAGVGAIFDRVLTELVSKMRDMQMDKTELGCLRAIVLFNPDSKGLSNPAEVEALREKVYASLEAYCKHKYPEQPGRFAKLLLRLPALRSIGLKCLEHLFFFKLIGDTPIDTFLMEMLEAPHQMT
Sequence (Q15596 679-703 partner): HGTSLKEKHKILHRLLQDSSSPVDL
THRß-Selectivity values for the compounds below.
In your answer, state the number alone without any accompanying words.

input: // fetch THRß-Selectivity given entry COc1nc2ccc(Oc3c(Cl)cc(-n4nc(C#N)c(=O)[nH]c4=O)cc3Cl)cc2n1C1(C)CC1 [Example 12]
output: 18.7

input: Return reported THRß-Selectivity. Input compound: CC(C)(C)n1c(=O)[nH]c2ccc(Oc3c(Cl)cc(NC(=O)c4noc(=O)[nH]4)cc3Cl)cc21 [Example 10]
output: 7.7

input: Please list THRß-Selectivity recorded for the compound O=C(Nc1cc(Cl)c(Oc2ccc3[nH]c(=O)n(C4CC4)c3c2)c(Cl)c1)c1noc(=O)[nH]1 [Example 1]
output: 5.1

input: Note THRß-Selectivity for the compound shown: N#Cc1nn(-c2cc(Cl)c(Oc3ccc4[nH]c(=O)n(C5CC5)c4c3)c(Cl)c2)c(=O)[nH]c1=O [Example 8]
output: 7.2

input: Report THRß-Selectivity, nothing else, for this compound: CC(C)(C)n1c(=O)[nH]c2ccc(Oc3c(Cl)cc(-n4nc(C#N)c(=O)[nH]c4=O)cc3Cl)cc21 [Example 16]
output: 9.8

input: Give THRß-Selectivity for COc1nc2ccc(Oc3c(Cl)cc(NC(=O)c4noc(=O)[nH]4)cc3Cl)cc2n1C [Example 3]
output: 9.7

input: Read off the recorded THRß-Selectivity for COc1nc2ccc(Oc3c(Cl)cc(NC(=O)c4noc(=O)[nH]4)cc3Cl)cc2n1C(C)C [Example 6]
output: 16.9

input: Please give the documented THRß-Selectivity of COc1nc2ccc(Oc3c(Cl)cc(NC(=O)c4noc(=O)[nH]4)cc3Cl)cc2n1C1(C(F)(F)F)CC1 [Example 24]
output: 6.7

# credit: patent US20240059682A1
